target: TLR7 (Homo sapiens, UniProt Q9NYK1); construct: lymphocytes, monocytes and dendritic cells that express TLR7, TLR8 and TLR9; endogenous in cells; host or cells: human PBMCs from healthy donors; experiment: Human PBMC cell-based assay, TLR7 agonist GS-986 stimulation, cytokine (IL-6 and IFNα) readout; details: human PBMCs, GS-986 400 nM, 6 hours; Table 26; read-out: TLR-7 EC50
Sequence (Q9NYK1 27-1049): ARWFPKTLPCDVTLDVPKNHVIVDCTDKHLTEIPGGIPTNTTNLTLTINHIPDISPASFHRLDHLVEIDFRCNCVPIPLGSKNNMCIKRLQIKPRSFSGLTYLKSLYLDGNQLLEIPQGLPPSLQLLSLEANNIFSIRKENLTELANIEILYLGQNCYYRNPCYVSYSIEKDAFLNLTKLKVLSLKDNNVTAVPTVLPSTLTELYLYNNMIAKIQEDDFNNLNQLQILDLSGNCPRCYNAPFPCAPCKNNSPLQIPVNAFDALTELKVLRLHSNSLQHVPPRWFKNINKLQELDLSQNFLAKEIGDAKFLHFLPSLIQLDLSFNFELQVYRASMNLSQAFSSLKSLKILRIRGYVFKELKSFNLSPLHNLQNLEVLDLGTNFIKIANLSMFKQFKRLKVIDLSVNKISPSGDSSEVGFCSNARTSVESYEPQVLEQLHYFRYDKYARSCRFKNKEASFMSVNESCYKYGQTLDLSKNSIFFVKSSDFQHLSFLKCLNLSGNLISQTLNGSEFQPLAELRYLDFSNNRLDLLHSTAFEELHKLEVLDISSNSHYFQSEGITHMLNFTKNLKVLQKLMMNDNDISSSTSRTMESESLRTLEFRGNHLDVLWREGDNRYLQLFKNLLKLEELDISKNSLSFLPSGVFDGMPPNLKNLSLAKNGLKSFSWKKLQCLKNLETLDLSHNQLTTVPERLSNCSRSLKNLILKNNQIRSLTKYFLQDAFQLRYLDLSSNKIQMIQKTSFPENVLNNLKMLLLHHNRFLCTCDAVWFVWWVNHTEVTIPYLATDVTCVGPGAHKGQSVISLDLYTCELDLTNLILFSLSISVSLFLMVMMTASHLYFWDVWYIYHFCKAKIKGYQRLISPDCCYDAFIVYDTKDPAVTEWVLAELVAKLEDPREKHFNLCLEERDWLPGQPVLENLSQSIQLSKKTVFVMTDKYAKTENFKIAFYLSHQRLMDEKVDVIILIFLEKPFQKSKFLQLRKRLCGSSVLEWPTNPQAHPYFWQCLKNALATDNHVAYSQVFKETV
pEC50: −log10 of the molar value.
Criterion: pEC50 meeting or surpassing 7. Met: t. Not met: f.

>  <MOLECULE>
Cc1cc(-c2[nH]c3cc(-c4ccc(N5CC[C@@H](N)C5)nc4)ccc3c2C)cc(C)n1 [Example 31]

>  <STUDY_TARGET>
TLR7 (Homo sapiens, UniProt Q9NYK1)

>  <CLASS_LABEL>
t

$$$$
>  <MOLECULE>
Cc1cc(-c2[nH]c3cc(-c4cnn(C5CC6CCC(C5)N6)c4)ccc3c2C)cc(C)n1 (centres unmarked) [Example 184]

>  <STUDY_TARGET>
TLR7 (Homo sapiens, UniProt Q9NYK1)

>  <CLASS_LABEL>
t

$$$$
>  <MOLECULE>
Cc1cc(-c2[nH]c3cc(-c4ccc(N5CC[C@@H](N)C5)nc4)ccc3c2C2CC2)cc(C)n1 [Example 105]

>  <STUDY_TARGET>
TLR7 (Homo sapiens, UniProt Q9NYK1)

>  <CLASS_LABEL>
t

$$$$
>  <MOLECULE>
Cc1ncc(-c2[nH]c3cc(-c4ccc(N5CCNCC5)nc4)ccc3c2C)cn1 [Example 82]

>  <STUDY_TARGET>
TLR7 (Homo sapiens, UniProt Q9NYK1)

>  <CLASS_LABEL>
f

$$$$
>  <MOLECULE>
Cc1c(-c2ccc(C#N)c3ncccc23)[nH]c2cc(-c3ccc(N4CCNCC4)nc3)ccc12 [Example 97]

>  <STUDY_TARGET>
TLR7 (Homo sapiens, UniProt Q9NYK1)

>  <CLASS_LABEL>
t

$$$$

###

Below, each entry is listed with its recorded pEC50.
Biological target: TLR9 (Homo sapiens, UniProt Q9NR96)
Construct: lymphocytes, monocytes and dendritic cells that express TLR7, TLR8 and TLR9; endogenous in cells; host or cells: human PBMCs from healthy donors
Sequence (Q9NR96 26-1032): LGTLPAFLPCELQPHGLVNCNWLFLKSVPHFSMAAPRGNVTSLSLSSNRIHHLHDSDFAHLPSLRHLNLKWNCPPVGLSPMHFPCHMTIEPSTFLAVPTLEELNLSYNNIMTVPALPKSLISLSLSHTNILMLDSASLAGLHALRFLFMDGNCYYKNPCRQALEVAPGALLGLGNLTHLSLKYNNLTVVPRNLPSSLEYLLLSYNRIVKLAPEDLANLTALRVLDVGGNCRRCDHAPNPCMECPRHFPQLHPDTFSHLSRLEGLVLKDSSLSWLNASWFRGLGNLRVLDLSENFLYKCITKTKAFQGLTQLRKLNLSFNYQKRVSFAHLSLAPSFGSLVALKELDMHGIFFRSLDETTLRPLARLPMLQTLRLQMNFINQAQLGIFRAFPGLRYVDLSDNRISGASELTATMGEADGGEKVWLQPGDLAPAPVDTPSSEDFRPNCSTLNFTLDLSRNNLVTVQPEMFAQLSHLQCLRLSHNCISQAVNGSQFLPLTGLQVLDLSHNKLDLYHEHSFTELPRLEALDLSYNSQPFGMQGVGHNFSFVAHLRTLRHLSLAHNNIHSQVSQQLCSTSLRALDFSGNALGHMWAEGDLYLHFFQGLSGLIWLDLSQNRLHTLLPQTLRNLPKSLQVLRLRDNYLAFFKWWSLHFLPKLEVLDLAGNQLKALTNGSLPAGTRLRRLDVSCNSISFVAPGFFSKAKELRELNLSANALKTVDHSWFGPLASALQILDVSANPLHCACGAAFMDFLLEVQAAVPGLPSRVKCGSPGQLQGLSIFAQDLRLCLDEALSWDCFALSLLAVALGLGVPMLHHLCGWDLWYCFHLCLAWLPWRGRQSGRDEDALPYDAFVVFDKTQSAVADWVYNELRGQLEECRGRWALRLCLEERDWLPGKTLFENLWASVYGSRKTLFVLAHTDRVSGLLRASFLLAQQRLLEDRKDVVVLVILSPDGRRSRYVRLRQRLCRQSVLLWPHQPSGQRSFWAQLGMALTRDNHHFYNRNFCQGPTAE
Test: Human PBMC cell-based assay, TLR9 agonist ODN-2216 stimulation, cytokine (IL-6 and IFNα) readout
Conditions: human PBMCs, ODN-2216 3 μM, 6 hours; Table 26; read-out: TLR-9 EC50
pEC50: −log10 of the molar value.
ENDPOINT_LABEL: pEC50

>  <COMPOUND>
Cc1cc(-c2[nH]c3cc(-c4ccc(N5CC[C@H]6CNC[C@H]65)nc4)ccc3c2C)cc(C)n1 [Example 33]

>  <ENDPOINT_LABEL>
pEC50

>  <EXPERIMENTAL_VALUE>
7.10

$$$$
>  <COMPOUND>
Cc1cc(-c2[nH]c3cc(-c4cnn(C5CCCNC5)c4)ccc3c2C)cc(C)n1 (stereo not shown) [Example 18]

>  <ENDPOINT_LABEL>
pEC50

>  <EXPERIMENTAL_VALUE>
7.06

$$$$
>  <COMPOUND>
Cc1cc(-c2[nH]c3cc(-c4csc(N5CCNCC5)n4)ccc3c2C)cc(C)n1 [Example 146]

>  <ENDPOINT_LABEL>
pEC50

>  <EXPERIMENTAL_VALUE>
7.43

$$$$
>  <COMPOUND>
Cc1cc(-c2[nH]c3cc(-c4ccc(C(=O)N5CCNCC5)cc4)ccc3c2C)cc(C)n1 [Example 8]

>  <ENDPOINT_LABEL>
pEC50

>  <EXPERIMENTAL_VALUE>
7.07

$$$$
>  <COMPOUND>
Cc1cc(-c2[nH]c3cc(-c4cccc(C(=O)N5CC[C@H](N)C5)c4)ccc3c2C)cc(C)n1 [Example 119]

>  <ENDPOINT_LABEL>
pEC50

>  <EXPERIMENTAL_VALUE>
6.72

$$$$
>  <COMPOUND>
Cc1cc(-c2[nH]c3cc(-c4ccc5cccnc5c4)ccc3c2C)cc(C)n1 [Example 47]

>  <ENDPOINT_LABEL>
pEC50

>  <EXPERIMENTAL_VALUE>
6.40

$$$$
>  <COMPOUND>
COCCN1CCN(c2ccc(-c3ccc4c(C)c(-c5cc(C)nc(C)c5)[nH]c4c3)cn2)CC1 [Example 117]

>  <ENDPOINT_LABEL>
pEC50

>  <EXPERIMENTAL_VALUE>
7.16

$$$$
>  <COMPOUND>
Cc1cc(-c2[nH]c3cc(-c4ccc(C(=O)N5CC[C@H](N)C5)cc4)ccc3c2C)cc(C)n1 [Example 120]

>  <ENDPOINT_LABEL>
pEC50

>  <EXPERIMENTAL_VALUE>
7.05

$$$$
>  <COMPOUND>
Cc1cc(-c2[nH]c3cc(-c4ccc(S(=O)(=O)N5CCNCC5)cc4)ccc3c2C)cc(C)n1 [Example 68]

>  <ENDPOINT_LABEL>
pEC50

>  <EXPERIMENTAL_VALUE>
7.03

$$$$
>  <COMPOUND>
Cc1cc(-c2[nH]c3cc(-c4ccc(C(=O)N5CC6CNCC6C5)cc4)ccc3c2C)cc(C)n1 (stereo not shown) [Example 126]

>  <ENDPOINT_LABEL>
pEC50

>  <EXPERIMENTAL_VALUE>
6.53

$$$$
>  <COMPOUND>
Cc1c(-c2ccnc(C#N)c2)[nH]c2cc(-c3ccc(N4CCNCC4)nc3)ccc12 [Example 75]

>  <ENDPOINT_LABEL>
pEC50

>  <EXPERIMENTAL_VALUE>
6.30

$$$$
>  <COMPOUND>
Cc1cc(-c2[nH]c3cc(-c4ccc(N5CC6CNCC6C5)nc4)ccc3c2C)cc(C)n1 (stereo not shown) [Example 34]

>  <ENDPOINT_LABEL>
pEC50

>  <EXPERIMENTAL_VALUE>
7.08

$$$$
>  <COMPOUND>
Cc1cc(-c2[nH]c3cc(-c4ccc(N5CCC[C@@H](N)C5)nc4)ccc3c2C)cc(C)n1 [Example 25]

>  <ENDPOINT_LABEL>
pEC50

>  <EXPERIMENTAL_VALUE>
7.41

$$$$
>  <COMPOUND>
Cc1cc(-c2[nH]c3cc(C4CCNCC4)ccc3c2C(C)C)cn2ncnc12 [Example 55]

>  <ENDPOINT_LABEL>
pEC50

>  <EXPERIMENTAL_VALUE>
5.40

$$$$
>  <COMPOUND>
Cc1c(-c2ccc(C#N)c3ncccc23)[nH]c2cc(-c3ccc(N4CCNCC4)nc3)ccc12 [Example 97]

>  <ENDPOINT_LABEL>
pEC50

>  <EXPERIMENTAL_VALUE>
6.14

$$$$
>  <COMPOUND>
Cc1cc(-c2[nH]c3cc(-c4ccc(C(=O)N5CC[C@@H](N)C5)cc4)ccc3c2C)cc(C)n1 [Example 124]

>  <ENDPOINT_LABEL>
pEC50

>  <EXPERIMENTAL_VALUE>
6.96

$$$$
